target: T1, ALPI His homodimer (Homo sapiens, UniProt P09923)
T1 sequence (P09923 with tags, fused parts or gaps): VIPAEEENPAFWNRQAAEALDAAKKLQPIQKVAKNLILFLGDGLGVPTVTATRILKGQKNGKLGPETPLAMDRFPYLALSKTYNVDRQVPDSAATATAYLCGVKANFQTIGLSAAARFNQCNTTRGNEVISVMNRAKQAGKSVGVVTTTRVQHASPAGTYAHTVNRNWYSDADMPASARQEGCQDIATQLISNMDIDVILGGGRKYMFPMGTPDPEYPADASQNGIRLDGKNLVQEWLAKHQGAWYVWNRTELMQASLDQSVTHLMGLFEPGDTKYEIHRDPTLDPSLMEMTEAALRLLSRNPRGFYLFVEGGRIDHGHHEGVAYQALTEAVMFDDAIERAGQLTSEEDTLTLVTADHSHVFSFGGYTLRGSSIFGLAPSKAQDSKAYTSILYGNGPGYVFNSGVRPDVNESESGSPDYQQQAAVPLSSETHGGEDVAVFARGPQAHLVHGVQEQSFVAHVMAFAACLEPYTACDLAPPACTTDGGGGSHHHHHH
test_summary: ELISA binding to ALPI
condition_notes: 500 ng purified VHH
quantity: ELISA hALPI

[
  {
    "molecule": "E10: ALPP/ALPPL2 targeting VHH domain, SEQ ID NO: 31 (protein) VHH: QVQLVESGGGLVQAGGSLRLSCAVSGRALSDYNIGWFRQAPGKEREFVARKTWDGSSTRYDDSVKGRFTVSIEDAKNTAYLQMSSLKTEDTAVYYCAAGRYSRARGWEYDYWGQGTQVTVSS",
    "quantity": "ELISA hALPI",
    "result": "No Binding"
  },
  {
    "molecule": "A06: ALPP/ALPPL2 targeting VHH domain, SEQ ID NO: 17; tested C-terminally His-tagged (protein, C-terminal His tag, tested C-terminally His-tagged) VHH: QVHLVESGGGLVQAGGSLRLSCAASGRTFLSMGWFRQAPGKEREFVAAISWTGGSTGYADSVKGRFTISRESDKETMYLQMNSLKPEDTAVYYCAARGDVYYGGDDATRYKYWGQGTQVTVSS",
    "quantity": "ELISA hALPI",
    "result": "No Binding"
  }
]
